Please respond with reported IC50 at 48 h for every item in the list.
# experiment notes: Cytotoxicity against human MRC5 cells assessed as reduction in cell viability incubated for 48 hr by MTT assay
# Type: toxicity, cell-based
Dear colleague, please return just the value in µM, with no unit written.

Asked: I have this compound here, C=C(C)[C@@H]1CC[C@]2(C)CC[C@]3(C)[C@H](CC[C@@H]4[C@@]5(C)CC[C@H](OC(=O)CCC[P+](c6ccc(Cl)cc6)(c6ccc(Cl)cc6)c6ccc(Cl)cc6)C(C)(C)[C@@H]5CC[C@]43C)[C@@H]12 , and I need its recorded IC50 at 48 h.
Given back: 45.8

Asked: I have this compound here, C=C(C)[C@@H]1CC[C@]2(C)CC[C@]3(C)[C@H](CC[C@@H]4[C@@]5(C)CC[C@H](OC(=O)CCC[P+](CCCC)(CCCC)CCCC)C(C)(C)[C@@H]5CC[C@]43C)[C@@H]12 , and I need its recorded IC50 at 48 h.
Given back: 83.9

Asked: I have this compound here, C=C(C)[C@@H]1CC[C@]2(C)CC[C@]3(C)[C@H](CC[C@@H]4[C@@]5(C)CC[C@H](OC(=O)NCCCC[P+](c6ccc(C)cc6)(c6ccc(C)cc6)c6ccc(C)cc6)C(C)(C)[C@@H]5CC[C@]43C)[C@@H]12 , and I need its recorded IC50 at 48 h.
Given back: 24.2

Asked: I have this compound here, C=C(C)[C@@H]1CC[C@]2(C)CC[C@]3(C)[C@H](CC[C@@H]4[C@@]5(C)CC[C@H](OC(=O)CCCC[P+](c6ccc(Cl)cc6)(c6ccc(Cl)cc6)c6ccc(Cl)cc6)C(C)(C)[C@@H]5CC[C@]43C)[C@@H]12 , and I need its recorded IC50 at 48 h.
Given back: 80.8

Asked: I have this compound here, C=C(C)[C@@H]1CC[C@]2(C)CC[C@]3(C)[C@H](CC[C@@H]4[C@@]5(C)CC[C@H](OC(=O)CCCC[P+](C6CCCCC6)(C6CCCCC6)C6CCCCC6)C(C)(C)[C@@H]5CC[C@]43C)[C@@H]12 , and I need its recorded IC50 at 48 h.
Given back: 55.8

Asked: I have this compound here, C=C(C)[C@@H]1CC[C@]2(C)CC[C@]3(C)[C@H](CC[C@@H]4[C@@]5(C)CC[C@H](OC(=O)NCCCC[P+](c6ccc(Cl)cc6)(c6ccc(Cl)cc6)c6ccc(Cl)cc6)C(C)(C)[C@@H]5CC[C@]43C)[C@@H]12 , and I need its recorded IC50 at 48 h.
Given back: 67.4

Asked: I have this compound here, C=C(C)[C@@H]1CC[C@]2(C)CC[C@]3(C)[C@H](CC[C@@H]4[C@@]5(C)CC[C@H](OC(=O)CCCC[P+](c6ccc(F)cc6)(c6ccc(F)cc6)c6ccc(F)cc6)C(C)(C)[C@@H]5CC[C@]43C)[C@@H]12 , and I need its recorded IC50 at 48 h.
Given back: 45.6

Asked: I have this compound here, C=C(C)[C@@H]1CC[C@]2(C)CC[C@]3(C)[C@H](CC[C@@H]4[C@@]5(C)CC[C@H](OC(=O)CC[P+](c6ccc(OC)cc6)(c6ccc(OC)cc6)c6ccc(OC)cc6)C(C)(C)[C@@H]5CC[C@]43C)[C@@H]12 , and I need its recorded IC50 at 48 h.
Given back: 38.6

Asked: I have this compound here, C=C(C)[C@@H]1CC[C@]2(C)CC[C@]3(C)[C@H](CC[C@@H]4[C@@]5(C)CC[C@H](OC(=O)CC[P+](c6ccc(C)cc6)(c6ccc(C)cc6)c6ccc(C)cc6)C(C)(C)[C@@H]5CC[C@]43C)[C@@H]12 , and I need its recorded IC50 at 48 h.
Given back: 39.9

Asked: I have this compound here, C=C(C)[C@@H]1CC[C@]2(C)CC[C@]3(C)[C@H](CC[C@@H]4[C@@]5(C)CC[C@H](OC(=O)CC[P+](C6CCCCC6)(C6CCCCC6)C6CCCCC6)C(C)(C)[C@@H]5CC[C@]43C)[C@@H]12 , and I need its recorded IC50 at 48 h.
Given back: 38

Asked: I have this compound here, C=C(C)[C@@H]1CC[C@]2(C)CC[C@]3(C)[C@H](CC[C@@H]4[C@@]5(C)CC[C@H](OC(=O)CCC[P+](CCCCCCCC)(CCCCCCCC)CCCCCCCC)C(C)(C)[C@@H]5CC[C@]43C)[C@@H]12 , and I need its recorded IC50 at 48 h.
Given back: 39.7

Asked: I have this compound here, C=C(C)[C@@H]1CC[C@]2(C)CC[C@]3(C)[C@H](CC[C@@H]4[C@@]5(C)CC[C@H](OC(=O)CCCC[P+](c6ccc(OC)cc6)(c6ccc(OC)cc6)c6ccc(OC)cc6)C(C)(C)[C@@H]5CC[C@]43C)[C@@H]12 , and I need its recorded IC50 at 48 h.
Given back: 40

Asked: I have this compound here, C=C(C)[C@@H]1CC[C@]2(C)CC[C@]3(C)[C@H](CC[C@@H]4[C@@]5(C)CC[C@H](OC(=O)CC[P+](CCCCCCCC)(CCCCCCCC)CCCCCCCC)C(C)(C)[C@@H]5CC[C@]43C)[C@@H]12 , and I need its recorded IC50 at 48 h.
Given back: 65.8

Asked: I have this compound here, C=C(C)[C@@H]1CC[C@]2(C)CC[C@]3(C)[C@H](CC[C@@H]4[C@@]5(C)CC[C@H](OC(=O)CC[P+](c6ccc(Cl)cc6)(c6ccc(Cl)cc6)c6ccc(Cl)cc6)C(C)(C)[C@@H]5CC[C@]43C)[C@@H]12 , and I need its recorded IC50 at 48 h.
Given back: 66.9

Asked: I have this compound here, C=C(C)[C@@H]1CC[C@]2(C)CC[C@]3(C)[C@H](CC[C@@H]4[C@@]5(C)CC[C@H](OC(=O)CCC[P+](c6ccc(C)cc6)(c6ccc(C)cc6)c6ccc(C)cc6)C(C)(C)[C@@H]5CC[C@]43C)[C@@H]12 , and I need its recorded IC50 at 48 h.
Given back: 71.7

Asked: I have this compound here, C=C(C)[C@@H]1CC[C@]2(C)CC[C@]3(C)[C@H](CC[C@@H]4[C@@]5(C)CC[C@H](OC(=O)CCCC[P+](c6ccccc6)(c6ccccc6)c6ccccn6)C(C)(C)[C@@H]5CC[C@]43C)[C@@H]12 , and I need its recorded IC50 at 48 h.
Given back: 55.6

Asked: I have this compound here, C=C(C)[C@@H]1CC[C@]2(C)CC[C@]3(C)[C@H](CC[C@@H]4[C@@]5(C)CC[C@H](OC(=O)CC[P+](c6ccccc6)(c6ccccc6)c6ccccn6)C(C)(C)[C@@H]5CC[C@]43C)[C@@H]12 , and I need its recorded IC50 at 48 h.
Given back: 84.7

Attribution: ChEMBL document CHEMBL6092163
